These measurements were taken from patent US10730868B2.

System tested: PAR4 (Homo sapiens (Human))
Protocol text: PAR4 FLIPR assay (antagonism of agonist-peptide-induced calcium mobilization)
Format: cell-based
Measurement conditions: H-Ala-Phe(4-F)-Pro-Gly-Trp-Leu-Val-Lys-Asn-Gly-NH2-induced intracellular calcium mobilization, PAR4-expressing HEK293 cells; read-out: PAR4 FLTPR assay (IC50)
# strict inequality: IC50 < 7 nM yields true (1), everything else yields false (0)

Query :: A record lists COc1cnc2c(-c3nc4cc(F)c(O[C@H]5CCC[C@H]5OC(=O)Nc5ccc(C(N)=O)nc5)cc4s3)cc(C)cc2n1 . Is its IC50 below 7 nM?
Result :: true (1)

Query :: What about COc1cnc2c(-c3nc4cc(F)c(O[C@H]5CCC[C@H]5OC(=O)Nc5ccc(C#N)nc5)cc4s3)cc(C)cc2n1 ?
Result :: true (1)

Query :: What about COc1cnc2c(-c3nc4cc(F)c(O[C@H]5CC(F)(F)CC[C@H]5OC(=O)Nc5cnc(CO)nc5)cc4s3)cc(C)cc2n1 ?
Result :: false (0)

Query :: What about COc1cnc2c(-c3nc4cc(F)c(O[C@@H]5CC(F)(F)CC[C@@H]5OC(=O)Nc5cnc(C)nc5)cc4s3)cc(C)cc2n1 ?
Result :: false (0)

Query :: What about CCOc1cnc2c(-c3nc4cc(F)c(O[C@@H]5CC[C@@H]5OC(=O)Nc5cnc(OCCO)nc5)cc4s3)cc(Cl)cc2c1 ?
Result :: false (0)

Query :: What about COc1cnc2c(-c3nc4cc(F)c(O[C@H]5CCC[C@H]5OC(=O)Nc5ccnc(C)c5)cc4s3)cc(C)cc2n1 ?
Result :: true (1)

Query :: What about COc1cnc2c(-c3nc4cc(F)c(O[C@H]5CC(F)(F)CC[C@H]5OC(=O)Nc5cnc(C)nc5)cc4s3)cc(C)cc2n1 ?
Result :: true (1)

Query :: What about CCOc1cnc2c(-c3nc4cc(F)c(O[C@H]5CC(F)(F)CC[C@H]5OC(=O)Nc5cnc(C)nc5)cc4s3)cc(C)cc2n1 ?
Result :: true (1)

Query :: What about COc1cnc2c(-c3nc4cc(F)c(O[C@H]5CC(F)(F)CC[C@H]5OC(=O)Nc5ccnc(OCCC(C)(C)O)c5)cc4s3)cc(C)cc2n1 ?
Result :: true (1)

Query :: What about COc1cnc2c(-c3nc4cc(F)c(O[C@H]5CC[C@H]5OC(=O)Nc5cnc(OC[C@@H](C)O)nc5)cc4s3)cc(C)cc2n1 ?
Result :: false (0)

Query :: What about COc1ccc(NC(=O)O[C@@H]2CCC[C@@H]2Oc2cc3sc(-c4cc(C)cc5nc(OC)cnc45)nc3cc2F)cc1 ?
Result :: true (1)

---

System tested: PAR4 (Homo sapiens (Human), UniProt Q96RI0)
Sequence (Q96RI0 18-385): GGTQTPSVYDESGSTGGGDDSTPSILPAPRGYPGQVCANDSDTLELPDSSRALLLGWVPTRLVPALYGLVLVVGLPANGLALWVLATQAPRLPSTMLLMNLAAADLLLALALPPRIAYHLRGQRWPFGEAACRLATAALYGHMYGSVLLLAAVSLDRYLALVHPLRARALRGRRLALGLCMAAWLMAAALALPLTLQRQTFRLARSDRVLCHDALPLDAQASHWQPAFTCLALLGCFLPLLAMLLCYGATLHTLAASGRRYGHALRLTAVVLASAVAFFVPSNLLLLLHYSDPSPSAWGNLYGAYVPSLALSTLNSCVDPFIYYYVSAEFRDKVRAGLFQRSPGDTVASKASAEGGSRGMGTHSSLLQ
Protocol text: PAR4 FLIPR assay (antagonism of agonist-peptide-induced calcium mobilization)
Format: cell-based
Measurement conditions: H-Ala-Phe(4-F)-[…]NH2-induced intracellular calcium mobilization, PAR4-expressing HEK293 cells; read-out: PAR4 FLTPR assay (IC50)
Recorded endpoint: IC50 (nM)
Answer with a number only, understood to be in nM.

Query :: // IC50 lookup, key: COc1ccc(NC(=O)O[C@H]2CCCC[C@H]2Oc2cc3sc(-c4cc(C)cc5nc(OC)cnc45)nc3cc2F)cn1 (racemic) [Example 57]
Result :: 6.1

Query :: What about COc1cnc2c(-c3nc4cc(F)c(O[C@@H]5CCC[C@@H]5OC(=O)Nc5cnc(C)nc5)cc4s3)cc(C#N)cc2n1 (racemic) [Example 46] ?
Result :: 2

Query :: What about COc1cnc2c(-c3nc4cc(F)c(O[C@@H]5CC[C@@H]5OC(=O)Nc5cnc(OCCO)nc5)cc4s3)cc(Cl)cc2c1 (racemic) [Example 79] ?
Result :: 0.9
